target: human F508del-CFTR (Homo sapiens, UniProt P13569, DEL508-508); assay: F508del-CFTR cell surface expression (corrector activity), DiscoveRx ß-galactosidase complementation chemiluminescence assay in recombinant U2OS cell line; settings: EC50, F508del-CFTR cell surface expression, U2OS cell line, 16h compound incubation; geomean values
Sequence (P13569 with tags, fused parts or gaps DEL508-508): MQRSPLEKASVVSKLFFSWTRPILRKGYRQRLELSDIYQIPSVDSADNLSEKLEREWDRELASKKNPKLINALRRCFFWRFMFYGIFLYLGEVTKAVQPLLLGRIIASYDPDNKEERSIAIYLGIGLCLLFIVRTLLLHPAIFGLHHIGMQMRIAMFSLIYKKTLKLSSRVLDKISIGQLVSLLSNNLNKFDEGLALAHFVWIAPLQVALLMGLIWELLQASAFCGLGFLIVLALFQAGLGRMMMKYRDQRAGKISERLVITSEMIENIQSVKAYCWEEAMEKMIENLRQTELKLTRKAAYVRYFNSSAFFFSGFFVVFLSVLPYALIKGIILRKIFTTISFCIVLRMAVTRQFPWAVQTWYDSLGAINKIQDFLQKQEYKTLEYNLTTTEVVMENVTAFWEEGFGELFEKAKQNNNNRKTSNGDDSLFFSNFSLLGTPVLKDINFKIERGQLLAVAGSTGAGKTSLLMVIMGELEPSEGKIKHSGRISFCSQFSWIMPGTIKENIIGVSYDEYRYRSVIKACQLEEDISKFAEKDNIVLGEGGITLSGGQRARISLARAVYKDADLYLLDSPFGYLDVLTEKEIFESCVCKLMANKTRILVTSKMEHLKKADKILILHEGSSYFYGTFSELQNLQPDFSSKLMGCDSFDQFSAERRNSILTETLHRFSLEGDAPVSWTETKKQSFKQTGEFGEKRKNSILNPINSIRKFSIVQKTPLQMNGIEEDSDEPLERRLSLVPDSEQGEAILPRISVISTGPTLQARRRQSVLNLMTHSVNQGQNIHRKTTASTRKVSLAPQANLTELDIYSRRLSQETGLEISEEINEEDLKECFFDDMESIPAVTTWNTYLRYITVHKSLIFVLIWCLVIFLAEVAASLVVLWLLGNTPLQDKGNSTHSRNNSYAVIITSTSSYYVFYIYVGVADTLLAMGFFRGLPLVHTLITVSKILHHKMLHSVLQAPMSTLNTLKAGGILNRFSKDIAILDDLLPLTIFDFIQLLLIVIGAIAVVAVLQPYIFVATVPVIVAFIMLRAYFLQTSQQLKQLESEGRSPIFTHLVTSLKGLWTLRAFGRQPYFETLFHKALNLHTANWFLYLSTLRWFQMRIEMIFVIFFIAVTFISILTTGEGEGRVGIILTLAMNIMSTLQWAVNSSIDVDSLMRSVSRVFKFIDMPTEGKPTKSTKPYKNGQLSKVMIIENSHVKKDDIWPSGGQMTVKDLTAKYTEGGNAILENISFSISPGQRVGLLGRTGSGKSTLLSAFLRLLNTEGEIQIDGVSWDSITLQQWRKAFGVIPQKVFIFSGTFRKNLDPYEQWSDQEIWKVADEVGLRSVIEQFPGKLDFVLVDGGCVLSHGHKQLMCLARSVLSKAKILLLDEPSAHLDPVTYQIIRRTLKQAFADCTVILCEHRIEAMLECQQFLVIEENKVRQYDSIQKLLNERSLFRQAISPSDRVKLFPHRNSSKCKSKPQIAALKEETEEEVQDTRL
QUANTITY: pEC50
The scale used: pEC50 is minus the common logarithm of the concentration in molar units.

Test item "COc1cccc(CCNC(=O)[C@@H]2CC(=O)N(C)[C@@H](CC(C)C)C(=O)N3CCN(C4CC4)C[C@H]3C(=O)N[C@H](Cc3ccccc3)COc3cnc4ccccc4c3C(=O)N2)c1" ; human F508del-CFTR (Homo sapiens, UniProt P13569, DEL508-508); reported pEC50 was 6.51

GET /values?item= "CC(C)C[C@H]1C(=O)N2CCOC[C@@H]2C(=O)N[C@H](Cc2ccccc2)COc2ccc3ccccc3c2C(=O)N[C@H](C(=O)NCCc2cccc(Br)c2)CC(=O)N1C" &system= human F508del-CFTR (Homo sapiens, UniProt P13569, DEL508-508) returns pEC50: 7.35

The reported pEC50 value, human F508del-CFTR (Homo sapiens, UniProt P13569, DEL508-508), for "COc1ccc(OCCNC(=O)[C@@H]2CC(=O)N(C)[C@@H](CC(C)C)C(=O)N3CCOC[C@@H]3C(=O)N[C@H](Cc3ccccc3)COc3ccc4ccccc4c3C(=O)N2)cc1" reads 6.59

# value of pEC50, human F508del-CFTR (Homo sapiens, UniProt P13569, DEL508-508), item "CC(C)C[C@H]1C(=O)N(C)CC(=O)N[C@H](Cc2ccccc2)COc2cccc(Cl)c2C(=O)N[C@H](C(=O)NCCc2ccc3c(c2)OCO3)CC(=O)N1C" = 6.19

Item COc1cccc(CCNC(=O)[C@@H]2CC(=O)N(C)[C@@H](CC3CCCC3)C(=O)N(CCC3CCCCC3)CC(=O)N[C@H](Cc3ccccc3)COc3ccc4ccccc4c3C(=O)N2)c1 (mixture of isomers) ; assay system human F508del-CFTR (Homo sapiens, UniProt P13569, DEL508-508); pEC50 reported as 6.99

Entry "CC(C)C[C@H]1C(=O)N(C)CC(=O)N[C@H](Cc2ccccc2)COc2cc3ccccc3cc2C(=O)N[C@H](C(=O)NCCc2ccc3c(c2)OCO3)CC(=O)N1C" , tested on human F508del-CFTR (Homo sapiens, UniProt P13569, DEL508-508), has a reported pEC50 of 6.36

Value (pEC50, human F508del-CFTR (Homo sapiens, UniProt P13569, DEL508-508)) for record "Cc1ccc(CCNC(=O)[C@@H]2CC(=O)N(C)[C@@H](CC(C)C)C(=O)N3CCOC[C@@H]3C(=O)N[C@H](Cc3ccccc3)COc3cnc4ccccc4c3C(=O)N2)cc1C" = 6.38

Field pEC50 (human F508del-CFTR (Homo sapiens, UniProt P13569, DEL508-508)), entry "CC(C)C[C@H]1C(=O)N2CCOC[C@@H]2C(=O)N[C@H](Cc2ccccc2)COc2ccc3ccccc3c2C(=O)N[C@H](C(=O)NCCc2nc3ccccc3o2)CC(=O)N1C" : 6.34

pEC50 value, target or system human F508del-CFTR (Homo sapiens, UniProt P13569, DEL508-508), for "COc1nccc2c1C(=O)N[C@H](C(=O)NCCc1ccc3c(c1)OCO3)CC(=O)N(C)[C@@H](CC(C)C)C(=O)N(CCC1CCCCC1)CC(=O)N[C@H](Cc1ccccc1)CO2" : 6.96

pEC50 for human F508del-CFTR (Homo sapiens, UniProt P13569, DEL508-508) with input "CC(C)C[C@H]1C(=O)N(CCC2CCCCC2)CC(=O)N[C@H](Cc2ccccc2)COc2cnc3c(F)cccc3c2C(=O)N[C@H](C(=O)NCCc2ccc3c(c2)OCO3)CC(=O)N1C" equals 7.36

---

molecular target: human F508del-CFTR (Homo sapiens, UniProt P13569, DEL508-508); test: F508del-CFTR cell surface expression (corrector activity), DiscoveRx ß-galactosidase complementation chemiluminescence assay in recombinant U2OS cell line; conditions: EC50, F508del-CFTR cell surface expression, U2OS cells, 16h compound incubation; geomean values
Binary label based on EC50 with cut-off 0.3 µM: below gives met, not below gives not met.

Completed entries (count: 7):
CC(C)C[C@H]1C(=O)N2CCOC[C@@H]2C(=O)N[C@H](Cc2ccccc2)COc2cnc3ccc(F)cc3c2C(=O)N[C@H](C(=O)NCCc2cc(C3CC3)no2)CC(=O)N1C = met
COc1nccc2c1C(=O)N[C@H](C(=O)NCCc1cc(C3CC3)no1)CC(=O)N(C)[C@@H](CC(C)C)C(=O)N1CC[C@@H](c3ccccc3)C[C@H]1C(=O)N[C@H](Cc1ccccc1)CO2 (single isomer, unassigned) = met
Cc1cc(CCNC(=O)[C@@H]2CC(=O)N(C)[C@@H](CC(C)C)C(=O)N3CCN(C4CC4)C[C@H]3C(=O)N[C@H](Cc3ccccc3)COc3cnc4ccccc4c3C(=O)N2)on1 = not met
COc1cc(CCNC(=O)[C@@H]2CC(=O)N(C)[C@@H](CC(C)C)C(=O)N(C)[C@H](CC(F)(F)F)C(=O)N[C@H](Cc3ccccc3)COc3ccnc(OC)c3C(=O)N2)on1 = not met
Cc1cc(CCNC(=O)[C@@H]2CC(=O)N(C)[C@@H](CC(C)C)C(=O)N3CCCC[C@@H]3C(=O)N[C@@H](Cc3ccccc3)COc3cnc4ccccc4c3C(=O)N2)on1 = not met
COC(=O)N1CCN2C(=O)[C@H](CC(C)C)N(C)C(=O)C[C@@H](C(=O)NCCc3cccc(OC)c3)NC(=O)c3c(ccc4ccccc34)OC[C@@H](Cc3ccccc3)NC(=O)[C@H]2C1 = met
COc1cccc(CCNC(=O)[C@@H]2CC(=O)N(C)[C@@H](CC(C)C)C(=O)N(C)C3(CC3)C(=O)N[C@H](Cc3ccccc3)COc3cnc(OC)cc3C(=O)N2)c1 = not met

Now for a further molecule.
I wonder whether "COc1cccc(CCNC(=O)[C@@H]2CC(=O)N(C)[C@@H](CC(C)C)C(=O)N(C)CC(=O)N[C@H](Cc3ccccc3)COc3ccc4ccccc4c3C(=O)N2)c1" has EC50 below 0.3 µM. Can you tell?
not met

---

target: human F508del-CFTR (Homo sapiens, UniProt P13569, DEL508-508); assay: F508del-CFTR cell surface expression (corrector activity), DiscoveRx ß-galactosidase complementation chemiluminescence assay in recombinant U2OS cell line; settings: EC50, F508del-CFTR cell surface expression, U2OS cells, 16h compound incubation; geomean values;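 further: U2OS cells co-expressing ProLink-tagged F508del-CFTR and a membrane-anchored enzyme acceptor, where more surface CFTR restores β-galactosidase activity measured by chemiluminescence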
Below, each of the molecules is paired with its reported EC50 value.
Lab book: enter the figure in nM, no units written.

# annotated cases, reported EC50 shown
Cc1nc2ccc3c(c2o1)C(=O)N[C@H](C(=O)NCCc1ccc(-n2nccn2)cc1)CC(=O)N(C)[C@@H](CC(C)C)C(=O)N1CCN(CC2CC2)C[C@@H]1C(=O)N[C@H](Cc1ccccc1)CO3 [Example 428] = 614
CC(C)C[C@H]1C(=O)N2CCN(C3CC3)C[C@@H]2C(=O)N[C@H](Cc2ccccc2)COc2cnc3ccccc3c2C(=O)N[C@H](C(=O)NCCc2nc3c(s2)CCC3)CC(=O)N1C [Example 404] = 157
COc1cccc(CCNC(=O)[C@@H]2CC(=O)N(C)[C@@H](CC(C)C)C(=O)N3CCCC[C@@H]3C(=O)N[C@H](Cc3ccccc3)COc3cc4oc(C)nc4cc3C(=O)N2)c1 [Example 406] = 409
COc1cccc(CCNC(=O)[C@@H]2CC(=O)N(C)[C@@H](CC(C)C)C(=O)N3CC[C@@H](C3)C(=O)N[C@H](Cc3ccccc3)COc3ccc(OC)cc3C(=O)N2)c1 [Example 584] = 575

Param item: COc1cccc(CCNC(=O)[C@@H]2CC(=O)N(C)[C@@H](CC(C)C)C(=O)N(C)[C@H](C)C(=O)N[C@H](Cc3ccccc3)COc3ccnc(OC)c3C(=O)N2)c1 [Example 768] ; param system: human F508del-CFTR (Homo sapiens, UniProt P13569, DEL508-508); output EC50: 497

Observed EC50, human F508del-CFTR (Homo sapiens, UniProt P13569, DEL508-508), CC(C)C[C@H]1C(=O)N(C)C2(CC2)C(=O)N[C@H](Cc2ccccc2)COc2ccc3ncccc3c2C(=O)N[C@H](C(=O)NCCc2cc(C3CC3)no2)CC(=O)N1C [Example 543] : 785

EC50 on human F508del-CFTR (Homo sapiens, UniProt P13569, DEL508-508) for CC[C@@H]1C(=O)N[C@H](Cc2ccccc2)COc2cc(C)nc(OC)c2C(=O)N[C@H](C(=O)NCCc2cc(OC)no2)CC(=O)N(C)[C@@H](CC(C)C)C(=O)N1C [Example 784] is 311

# CC(C)C[C@H]1C(=O)N2CCOC[C@@H]2C(=O)N[C@H](Cc2ccccc2)COc2cnc3c(F)cccc3c2C(=O)N[C@H](C(=O)NCCc2ccc3c(c2)OCCO3)CC(=O)N1C [Example 627] with human F508del-CFTR (Homo sapiens, UniProt P13569, DEL508-508): EC50 is 786

Value (EC50, human F508del-CFTR (Homo sapiens, UniProt P13569, DEL508-508)) for record COc1cccc(CCNC(=O)[C@@H]2CC(=O)N(C)[C@@H](CC(C)C)C(=O)N3CCN(CC(C)C)C[C@@H]3C(=O)N[C@H](Cc3ccccc3)COc3ccc4nc(C)oc4c3C(=O)N2)c1 [Example 619] = 155

// EC50 (human F508del-CFTR (Homo sapiens, UniProt P13569, DEL508-508)) for CC(C)C[C@H]1C(=O)N2CCCC[C@@H]2C(=O)N[C@H](Cc2ccccc2)COc2cnc3ccc(F)cc3c2C(=O)N[C@H](C(=O)NCCc2ccc(-n3nccn3)cc2)CC(=O)N1C [Example 481] = 448
